Measured normalized growth by item
assay: chemical genetic growth profiling, strain panel (AID 1159580);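 note: tested at 20 µM; growth read once vehicle control cultures reached saturation at 30 °C; 1 = growth at the plate median or of vehicle wells; lower values mean less growth of the strain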; conditions: S. cerevisiae deletion strains, growth OD, locus YKR091W, strain srl3, active compounds read low
Out of some 5,500 compounds screened, about 2,000 (36%) were called active. About 18% were inconclusive and are not listed. The list shows a part of the results.
# respond with the number and nothing more

Some solved cases for reference:
# Compound, Endpoint result
rows = [
    ("COc1cccc2c1C(=O)c1c(O)c3c(c(O)c1C2=O)C[C@@](O)(C(=O)CO)C[C@@H]3O[C@H]1C[C@H](N)[C@@H](O)[C@H](C)O1", 0.943),
    ("O=C1C(O)=C(O)C(=O)C(O)=C1O", 0.999),
    ("CO[C@@]12[C@@H]3NC3CN1C1=C(C(=O)C(N)=C(C)C1=O)[C@@H]2COC(N)=O (some centres undefined)", 0.959),
    ("C#C[C@]1(OC(C)=O)CCC2C3CCC4=CC(=O)CC[C@@H]4C3CC[C@@]21C (some centres undefined)", 0.992),
    ("COc1cccc2c1C(=O)c1c(O)c3c(c(O)c1C2=O)C[C@@](O)(C(C)=O)C[C@@H]3O[C@H]1C[C@H](N)[C@H](O)[C@H](C)O1", 0.971),
    ("NNc1nncc2ccccc12", 0.997),
    ("N#CC(O[C@@H]1O[C@H](CO[C@@H]2O[C@H](CO)[C@@H](O)[C@H](O)[C@H]2O)[C@@H](O)[C@H](O)[C@H]1O)c1ccccc1 (some centres undefined)", 0.979),
    ("Nc1c2ccccc2nc2ccccc12 (tested in a mixture with another compound)", 0.95),
    ("Cc1ccc(N=CN(C)C=Nc2ccc(C)cc2C)c(C)c1", 0.983),
    ("CCN1C[C@]2(OC(=O)c3ccccc3NC(C)=O)CCC(OC)[C@]34C1[C@H](CC23)[C@@]1(O)CC(OC)[C@H]2CC4C1(O)[C@H]2OC (some centres undefined)", 0.979),
]

Ask: Suppose we examine the compound `Clc1ccccc1C(c1ccccc1)(c1ccccc1)n1ccnc1` ; what normalized growth value has been reported?
Reply: 0.0594

Ask: Suppose we examine the compound `COC(=O)Nc1nc2ccc(Sc3ccccc3)cc2[nH]1` ; what normalized growth value has been reported?
Reply: 1.01

Ask: Suppose we examine the compound `FC(F)(F)c1ccccc1-n1ccnc1` ; what normalized growth value has been reported?
Reply: 1

Ask: Suppose we examine the compound `CCOc1ccc2nc3cc(N)ccc3c(N)c2c1` ; what normalized growth value has been reported?
Reply: 0.875

Ask: Suppose we examine the compound CC(C)=CCCC1(C)C=Cc2c(O)c3c(c(CC=C(C)C)c2O1)OC12C(=CC4CC1C(C)(C)OC2(C/C=C(/C)C(=O)O)C4=O)C3=O (centres undefined) ; what normalized growth value has been reported?
Reply: 0.96

Ask: Suppose we examine the compound `O=C1c2c(O)cccc2Cc2cccc(O)c21` ; what normalized growth value has been reported?
Reply: 0.985

Ask: Suppose we examine the compound `O=C(Nc1ccc(C(=O)O)c(O)c1)c1ccccc1` ; what normalized growth value has been reported?
Reply: 0.984

Ask: Suppose we examine the compound COC(=O)Nc1nc2ccc(S(=O)c3ccccc3)cc2[nH]1 (centres undefined) ; what normalized growth value has been reported?
Reply: 1

Ask: Suppose we examine the compound CC(C)=CCCC1(C)C=Cc2c(O)c3c(c(CC=C(C)C)c2O1)OC12C(=CCCC1C(C)(C)O[C@@]2(C/C=C(\C)C(=O)O)C(=O)O)C3=O (some centres undefined) ; what normalized growth value has been reported?
Reply: 0.998
